Catalogue of IC50 readings, one per entry.
# STUDY SYSTEM: ALDH1A1 (Homo sapiens, UniProt P00352)
# Sequence (P00352 2-501): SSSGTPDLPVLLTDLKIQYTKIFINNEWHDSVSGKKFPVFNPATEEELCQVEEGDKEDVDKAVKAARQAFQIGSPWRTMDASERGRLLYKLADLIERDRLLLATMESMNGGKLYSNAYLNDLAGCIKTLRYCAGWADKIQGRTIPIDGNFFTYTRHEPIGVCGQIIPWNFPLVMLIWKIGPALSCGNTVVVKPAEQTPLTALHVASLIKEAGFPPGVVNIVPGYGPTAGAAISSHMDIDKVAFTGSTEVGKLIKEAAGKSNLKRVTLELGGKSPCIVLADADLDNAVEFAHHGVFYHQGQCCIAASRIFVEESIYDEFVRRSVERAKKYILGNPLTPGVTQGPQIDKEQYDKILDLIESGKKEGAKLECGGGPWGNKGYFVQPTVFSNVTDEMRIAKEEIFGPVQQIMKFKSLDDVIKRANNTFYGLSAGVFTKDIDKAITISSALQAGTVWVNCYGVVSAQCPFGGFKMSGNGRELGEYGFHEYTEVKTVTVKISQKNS
# ASSAY COMMENT: enzyme inhibition assay with purified recombinant enzyme ([…] min pre-incubation)

C#CCNC(=O)[C@@H](N)[C@@H]1CC(Cl)=NO1 [ACV2] = 55 µM

Here is the next item to consider.
IN: Fill in reported IC50 for this entry: C#CCCCC(=O)OC[C@H]1CC(Br)=NO1 [ACVL1]
OUT: 0.3 µM

* * *

# STUDY SYSTEM: ALDH4A1 (Homo sapiens)
# Sequence (P30038 25-563): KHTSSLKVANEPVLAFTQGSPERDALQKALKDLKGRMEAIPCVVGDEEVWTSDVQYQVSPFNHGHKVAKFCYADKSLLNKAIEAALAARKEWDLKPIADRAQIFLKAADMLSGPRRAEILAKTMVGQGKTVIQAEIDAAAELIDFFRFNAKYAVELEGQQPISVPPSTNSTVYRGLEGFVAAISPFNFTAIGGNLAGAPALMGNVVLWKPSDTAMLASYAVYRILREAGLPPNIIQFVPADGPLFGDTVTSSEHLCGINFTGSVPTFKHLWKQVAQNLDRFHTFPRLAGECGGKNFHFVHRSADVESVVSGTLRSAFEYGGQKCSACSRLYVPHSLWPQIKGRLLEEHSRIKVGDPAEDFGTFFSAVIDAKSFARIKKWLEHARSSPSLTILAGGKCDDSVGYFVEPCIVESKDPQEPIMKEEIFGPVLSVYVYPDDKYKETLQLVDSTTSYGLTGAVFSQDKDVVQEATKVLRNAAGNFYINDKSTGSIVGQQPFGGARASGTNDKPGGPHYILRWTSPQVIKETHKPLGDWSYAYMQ
# ASSAY COMMENT: enzyme inhibition assay with purified recombinant enzyme ([…] min pre-incubation); also ABPP labelling, lost in the Cys348Ala mutant
# Format: biochemical
OBSERVED PROPERTY: IC50 (nM)
# output: bare number, implied unit nM

IN: Fill in reported IC50 for this entry: C#CCCCC(=O)N[C@H](C(=O)O)[C@@H]1CC(Cl)=NO1 [ACV1]
OUT: 700
